Biological target: HDAC6 (Homo sapiens, UniProt Q9UBN7)
Construct: purchased Reaction Biology
Assay: HDAC enzymatic assay (Reaction Biology), HDAC6
Assay type: biochemical
Conditions: 10-dose response curve; read-out: Compound IC50 (M), HDAC6
Procedure: Compound 1 was tested in an enzymatic assay from Reaction Biology® against 10 HDAC isoforms. The IC50 values were derived from a 10-dose response curve. Base Reaction buffer: 50 mM Tris-HCl, pH8.0, 137 mM NaCl, 2.7 mM KCl, and 1 mM MgCl2, Add fresh: 1 mg/ml BSA, 1% DMSO […] 5. […] The fluorescence that was generated was detected with excitation (Ex) at […] and emission (Em) at 460 nM by the EnVision Multilabel Plate Reader (PerkinElmer®, Santa Clara, Calif., USA). […]
measured_quantity: IC50

1) O=C(/C=C/c1ccc(CN(CCOCCOCCNc2cccc3c2C(=O)N(C2CCC(=O)NC2=O)C3=O)CCc2c[nH]c3ccccc23)cc1)NO (stereo not shown) [Compound 1]	1.6e-07 M

====

Target: CRBN (Homo sapiens, UniProt Q96SW2)
Construct: endogenous in cells
Experiment: Cellular CRBN engagement assay (competition with dBET6, BRD4BD2-eGFP reporter, Flip-In 293 cells)
Settings: titrated in the presence of 100 nM dBET6, 5 h, Flip-In 293 cells expressing BRD4BD2-eGFP/mCherry
pIC50: −log10 of the molar value.
Catalogue of pIC50 values
measured_quantity: pIC50

1. O=C(/C=C/c1ccc(CN(CCCCCNc2cccc3c2C(=O)N(C2CCC(=O)NC2=O)C3=O)CCc2c[nH]c3ccccc23)cc1)NO (stereo not drawn)	5.00
2. O=C(/C=C/c1ccc(CN(CCOCCNc2cccc3c2C(=O)N(C2CCC(=O)NC2=O)C3=O)CCc2c[nH]c3ccccc23)cc1)NO (stereo not drawn)	4.72
3. O=C(/C=C/c1ccc(CN(CCOCCOCCNc2cccc3c2C(=O)N(C2CCC(=O)NC2=O)C3=O)CCc2c[nH]c3ccccc23)cc1)NO (stereo not drawn)	4.93

====

Biological target: HDAC8 (Homo sapiens, UniProt Q9BY41)
Construct: purchased Reaction Biology
Sequence (Q9BY41 1-377): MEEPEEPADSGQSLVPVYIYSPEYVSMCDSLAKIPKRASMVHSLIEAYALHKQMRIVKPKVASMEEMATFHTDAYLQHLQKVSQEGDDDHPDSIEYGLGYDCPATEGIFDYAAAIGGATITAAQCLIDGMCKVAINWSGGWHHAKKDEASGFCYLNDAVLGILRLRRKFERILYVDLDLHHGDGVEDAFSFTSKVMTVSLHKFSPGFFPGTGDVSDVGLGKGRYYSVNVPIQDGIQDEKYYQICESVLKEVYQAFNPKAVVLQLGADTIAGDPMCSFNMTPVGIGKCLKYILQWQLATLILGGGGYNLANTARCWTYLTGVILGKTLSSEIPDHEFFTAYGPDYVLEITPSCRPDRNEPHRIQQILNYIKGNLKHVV
Experiment: HDAC enzymatic assay (Reaction Biology), HDAC8
Type: biochemical
Conditions: 10-dose response curve; read-out: Compound IC50 (M), HDAC8
measured_quantity: IC50 (M)

1. O=C(/C=C/c1ccc(CN(CCOCCOCCNc2cccc3c2C(=O)N(C2CCC(=O)NC2=O)C3=O)CCc2c[nH]c3ccccc23)cc1)NO (stereo not shown) [Compound 1]	4.51e-06
